endpoint label: CH4 permeability (Barrer)

Below: 5 compounds and their reported CH4 permeability.
*C(=C(*)c1ccc2c(c1)C(C)(C)CC2(C)C)c1ccc(F)c(F)c1 (repeat unit)
35000
*NCC(C)(C)CC(C)CCNC(=O)c1ccc(C(*)=O)cc1 (repeat unit)
0.018
*/C(C)=C(/*)[Si](C)(C)CCCC (repeat unit)
17
*c1ccc(-c2ccc(C(*)(C(F)(F)F)C(F)(F)F)cc2)cc1 (repeat unit)
34
*CC(*)OC(=O)c1ccc(C)cc1 (repeat unit)
0.417

A: *Oc1ccc(S(=O)(=O)c2ccc(Oc3ccc(C(C)(C)c4ccc(*)cc4)cc3CN)cc2)cc1 (repeat unit)
B: *C(=C(*)c1ccc(-c2ccccc2)cc1)c1ccccc1 (repeat unit)
C: *Oc1ccc(Oc2cccc(*)c2C#N)c(-c2cc(C(F)(F)F)cc(C(F)(F)F)c2)c1 (repeat unit)
### Prompt Ordering: ascending CH4 permeability. List the labels according to the requested ordering.
### Response A, C, B

====

endpoint label: N2 permeability (Barrer)

*Nc1ccc(Oc2c(F)c(F)c(Oc3ccc(NC(=O)CN4C(=O)c5ccc(C(*)=O)cc5C4=O)cc3)c(F)c2F)cc1 (repeat unit)
0.071
*CC(*)OCc1ccccc1 (repeat unit)
0.79

I: *Oc1ccc(C(=O)c2ccccc2-c2ccccc2C(=O)c2ccc(Oc3c(C)cc(-c4cc(C)c(*)c(C)c4)cc3C)cc2)cc1 (repeat unit)
II: *Oc1ccc(S(=O)(=O)c2ccc(Oc3c(C)cc(C(C)(C)c4cc(C)c(*)c(C)c4)cc3C)cc2)cc1 (repeat unit)
### Prompt Smaller N2 permeability value? Options are I and II Let me know the label of the one you choose.
### Response I
(I: 0.291 Barrer, II: 1.06 Barrer)

====

endpoint label: CO2 permeability (Barrer)

1: *Nc1ccc(C(c2ccc(NC(=O)c3cccc(C(*)=O)c3)cc2)(C(F)(F)F)C(F)(F)F)cc1 (repeat unit)
2: *Oc1ccc(C(C)(C)c2ccc(Oc3ccc(S(=O)(=O)c4ccc(*)cc4)cc3)c(C)c2)cc1C (repeat unit)
### Prompt Smaller CO2 permeability value? Options are 1 and 2 Let me know the label of the one you choose.
### Response 2
(2: 2.1 Barrer, 1: 9 Barrer)

I: *C(=C(*)c1ccc2c(c1)C(C)(C)c1ccccc1-2)c1ccccc1 (repeat unit)
II: *Oc1ccc(C(C)(C)c2ccc(Oc3ccc4c(c3)C(=O)N(c3cccc(N5C(=O)c6ccc(*)cc6C5=O)c3)C4=O)cc2)cc1 (repeat unit)
III: *OC(=O)Oc1ccc(C2(c3ccc(*)cc3)CC3CCC2C3)cc1 (repeat unit)
IV: *Oc1ccc(C(c2ccc(Oc3ccc(S(=O)(=O)c4ccc(*)cc4)cc3)cc2)c2ccccc2C(=O)O)cc1 (repeat unit)
### Prompt Arrange these compounds by their CO2 permeability, starting with the largest number. List the labels according to the requested ordering.
### Response I, III, IV, II

====

endpoint label: O2 permeability (Barrer)

Below: 8 compounds and their reported O2 permeability.
*Oc1c(Br)cc(C2(c3cc(Br)c(OC(=O)c4cc(C(*)=O)cc(C(C)(C)C)c4)c(Br)c3)OC(=O)c3ccccc32)cc1Br (repeat unit)
7.41
*Oc1ccc(Oc2ccc(C(=O)c3ccc(*)cc3)cc2)c(-c2cc(C)cc(C)c2)c1 (repeat unit)
0.33
*c1ccc(Oc2ccc3ccccc3c2-c2c(Oc3ccc(N4C(=O)c5ccc(C(c6ccc7c(c6)C(=O)N(*)C7=O)(C(F)(F)F)C(F)(F)F)cc5C4=O)cc3)ccc3ccccc23)cc1 (repeat unit)
2.56
*Nc1cccc(NC(=O)c2ccc(C(c3ccc(C(*)=O)cc3)(C(F)(F)F)C(F)(F)F)cc2)c1 (repeat unit)
2.2
*=CC1CC(C=*)C(C(F)(F)F)(C(F)(F)F)C1(F)F (repeat unit)
27.7
*c1ccc(C(C)(C)c2ccc(N3C(=O)c4ccc(C(c5ccc6c(c5)C(=O)N(*)C6=O)(C(F)(F)F)C(F)(F)F)cc4C3=O)cc2)cc1 (repeat unit)
7.5
*C(=C(*)c1ccc2c(c1)C(C)(C)CC2(C)C)c1cccc(F)c1 (repeat unit)
14300
*c1c(C)cc(-c2cc(C)c(N3C(=O)c4cc5c(cc4C3=O)C3(CC(C)(C)c4cc6c(cc43)C(=O)N(*)C6=O)CC5(C)C)c3ccccc23)c2ccccc12 (repeat unit)
640

I: *Oc1ccc(S(=O)(=O)c2ccc(Oc3cccc4c(*)cccc34)cc2)cc1 (repeat unit)
II: *Oc1c(-c2ccccc2)cc(*)cc1-c1ccccc1 (repeat unit)
### Prompt Could you kindly indicate whether I or II has the higher O2 permeability value? Let me know the label of the one you choose.
### Response II
(II: 7.7 Barrer, I: 0.42 Barrer)

1: *c1ccc(Oc2ccc(-n3c(=O)c4cc5c(=O)n(*)c(=O)c5cc4c3=O)cc2)cc1 (repeat unit)
2: *C(C(=O)OC(C)C)C(*)C(=O)OC(C)(C)C (repeat unit)
3: *Oc1ccc(Oc2ccc(C(=O)c3ccc(*)cc3)cc2)c(-c2cccc(C)c2)c1 (repeat unit)
4: *Oc1ccc(-c2c(-c3ccc(Br)cc3)c(-c3ccc(Br)cc3)c(-c3ccc4c(c3)Oc3c(C#N)c(*)c(*)c(C#N)c3O4)c(-c3ccc(Br)cc3)c2-c2ccc(Br)cc2)cc1O* (repeat unit)
### Prompt Arrange these compounds by their O2 permeability, starting with the largest number. List the labels according to the requested ordering.
### Response 4, 2, 1, 3

====

endpoint label: O2 permeability (Barrer)

*CO* (repeat unit)
0.09
*Oc1ccc(S(=O)(=O)c2ccc(-c3ccc(S(=O)(=O)c4ccc(Oc5ccc(C(C)(C)c6ccc(*)cc6)cc5)cc4)cc3)cc2)cc1 (repeat unit)
2.39

a: *OC(=O)Oc1ccc(C2(c3ccc(*)cc3)c3ccccc3-c3ccccc32)cc1 (repeat unit)
b: *OC1OC(COC(=O)NC(C)(C)C)C(*)C(OCC)C1OCC (repeat unit)
c: *Oc1ccc2c(c1)C1(CC2(C)C)CC(C)(C)c2ccc(Oc3ccc4c(c3)C(=O)N(c3cccc(N5C(=O)c6ccc(*)cc6C5=O)c3)C4=O)cc21 (repeat unit)
### Prompt Ordering: ascending O2 permeability. List the labels according to the requested ordering.
### Response c, a, b
(c: 1.4 Barrer, a: 3.18 Barrer, b: 16 Barrer)

====

endpoint label: O2 permeability (Barrer)

*OC1OC(OC(C)=O)C(*)C(OC(C)=O)C1OC(C)=O (repeat unit)
1.46
*Oc1ccc(Oc2ccc(C(=O)c3ccc(*)cc3)cc2)cc1 (repeat unit)
0.259
*Nc1ccc(C(c2ccc(NC(=O)c3ccc(Oc4cc(C(C)(C)C)c(Oc5ccc(C(*)=O)cc5)cc4C(C)(C)C)cc3)cc2)(C(F)(F)F)C(F)(F)F)cc1 (repeat unit)
7.88

a: *c1ccc(-c2ccc(C(*)(C(F)(F)F)C(F)(F)F)cc2)cc1 (repeat unit)
b: *Oc1ccc(Oc2cccc(*)c2C#N)c(-c2cc(C(F)(F)F)cc(C(F)(F)F)c2)c1 (repeat unit)
c: *c1c(C)cc(-c2cc(C)c(-n3c(=O)c4cc5oc6cc7c(cc6oc5cc4c3=O)C3(C)CCC7(C)c4cc5oc6cc7c(=O)n(*)c(=O)c7cc6oc5cc43)c3ccccc23)c2ccccc12 (repeat unit)
d: */C=C/c1ccc(*)cc1[Si](C)(C)CCCC (repeat unit)
### Prompt Arrange these compounds by their O2 permeability, starting with the largest number. List the labels according to the requested ordering.
### Response c, a, b, d
(c: 583 Barrer, a: 120 Barrer, b: 6.6 Barrer, d: 3.5 Barrer)

====

endpoint label: CO2 permeability (Barrer)

Below: 5 compounds and their reported CO2 permeability.
*Oc1c(C)cc(C(C)(C)c2cc(C)c(OC(*)=O)c(C)c2)cc1C (repeat unit)
18.6
*c1ccc(-c2ccc(Oc3ccc4c(c3)C3(CC4(C)C)CC(C)(C)c4ccc(Oc5ccc(-c6ccc(N7C(=O)c8ccc(Oc9ccc%10c(c9)C(=O)N(*)C%10=O)cc8C7=O)cc6)cc5C(F)(F)F)cc43)c(C(F)(F)F)c2)cc1 (repeat unit)
22.6
*/C=C/c1ccc(*)cc1[Si](C)(C)CCCC (repeat unit)
14
*OC1OC(COC(=O)NC(C)(C)C)C(*)C(OCC)C1OCC (repeat unit)
94.5
*C(=C(*)c1ccc2c(c1)CCC2)c1ccccc1 (repeat unit)
390

a: *c1ccc(C(C)(C)c2ccc(-c3nc4cc(-c5ccc6[nH]c(*)nc6c5)ccc4[nH]3)cc2)cc1 (repeat unit)
b: *c1ccc2c(c1)Cc1cc(N3C(=O)c4ccc(C(c5ccc6c(c5)C(=O)N(*)C6=O)(C(F)(F)F)C(F)(F)F)cc4C3=O)ccc1-2 (repeat unit)
### Prompt Could you kindly indicate whether a or b has the higher CO2 permeability value? Let me know the label of the one you choose.
### Response b

====

endpoint label: O2 permeability (Barrer)

Below: 2 compounds and their reported O2 permeability.
*C(=C(*)c1ccc([Si](C)(C)C)cc1)c1ccccc1 (repeat unit)
1200
*C(=C(*)c1cccc([Si](C)(C)C)c1)c1ccccc1 (repeat unit)
1200

1: *Oc1ccc(C(=O)c2ccccc2-c2ccccc2C(=O)c2ccc(Oc3c(C)cc(-c4cc(C)c(*)c(C)c4)cc3C)cc2)cc1 (repeat unit)
2: *c1ccc(Cc2ccc(N3C(=O)c4ccc(C(=O)Oc5ccc(C(c6ccc(OC(=O)c7ccc8c(c7)C(=O)N(*)C8=O)cc6)(C(F)(F)F)C(F)(F)F)cc5)cc4C3=O)cc2)cc1 (repeat unit)
3: *Nc1ccc(S(=O)(=O)c2ccc(NC(=O)c3cccc(C(*)=O)c3)cc2)cc1 (repeat unit)
### Prompt Ordering: ascending O2 permeability. List the labels according to the requested ordering.
### Response 3, 2, 1

1: *Oc1ccc(Oc2ccc(Oc3ccc(S(=O)(=O)c4ccc(*)cc4)cc3)cc2)cc1 (repeat unit)
2: *Oc1cc2c(cc1O*)C1(CC2(C)C)CC(C)(C)c2cc3c(cc21)Oc1c(CN)c(*)c(*)c(CN)c1O3 (repeat unit)
3: *Oc1ccc(S(=O)(=O)c2ccc(Oc3ccc(C(C)(C)c4ccc(*)c(C)c4)cc3C)cc2)cc1 (repeat unit)
### Prompt Arrange these compounds by their O2 permeability, starting with the largest number. List the labels according to the requested ordering.
### Response 2, 1, 3
(2: 752 Barrer, 1: 1.1 Barrer, 3: 0.64 Barrer)

1: *c1ccc2c(c1)C1c3ccccc3C2c2ccc(N3C(=O)c4ccc(C(c5ccc6c(c5)C(=O)N(*)C6=O)(C(F)(F)F)C(F)(F)F)cc4C3=O)cc21 (repeat unit)
2: *Oc1ccc(S(=O)(=O)c2ccc(Oc3c(C)cc(-c4cc(C)c(*)c(C)c4)cc3C)cc2)cc1 (repeat unit)
3: *Oc1ccc(S(=O)(=O)c2ccc(Oc3ccc(C(C)(c4ccccc4)c4ccc(*)cc4)cc3)cc2)cc1 (repeat unit)
### Prompt Arrange these compounds by their O2 permeability, starting with the largest number. List the labels according to the requested ordering.
### Response 1, 2, 3

Data origin, for the record: a polymer gas permeability compilation
